Test: MM1S myeloma cell viability, profiling panel, resazurin fluorescence, basal, 24 h, PK04 Diversity Set (AID 1174);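 note: MM1S multiple myeloma cell line; test concentration not given here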
Settings: higher = more signal, called active from +8 up or from −8 down
Assay Endpoint: z-score

Chem Smiles: C=CCNC(=O)[C@H]1[C@@H]2C(=O)O[C@@H](c3ccccc3)[C@@H](c3ccccc3)N2[C@@H](c2ccc(O)cc2)[C@]12C(=O)N(C(=O)OCCOC)c1ccccc12
Experimental Result: -0.331
--
Chem Smiles: NC(=O)NCC#Cc1ccc2c(c1)[C@]1(C(=O)N2)[C@H](C(=O)O)[C@H]2C(=O)O[C@H](c3ccccc3)[C@H](c3ccccc3)N2[C@@H]1c1ccc(OCCO)cc1
Experimental Result: 0.557
--
Chem Smiles: C[N+](C)(C)CCCC[C@@H]1NC(=O)[C@H]2C[C@@H](C(=O)NCCCCCCN)[C@@H](c3ccc(O)cc3)N2C1=O
Experimental Result: 0.99
--
Chem Smiles: COCC1=C2[C@@H](CCc3ccccc3)OB(O)C[C@@H]2[C@@H]2C(=O)C=CC(=O)[C@@H]2C1
Experimental Result: -0.997
--
Chem Smiles: COCCOC(=O)N1C(=O)[C@@]2(c3cc(C#Cc4ccc(OC)cc4)ccc31)[C@H](c1ccc(O)cc1)N1[C@H](c3ccccc3)[C@H](c3ccccc3)OC(=O)[C@H]1[C@@H]2C(=O)N1CCCCCCC1
Experimental Result: -0.431
--
Chem Smiles: O=C(CS)NCCCCCCNC(=O)[C@H]1C[C@H]2C(=O)N[C@@H](Cc3ccccc3)C(=O)N2[C@H]1c1ccc(O)cc1
Experimental Result: -0.619
--
Chem Smiles: CCCCCCc1nc(C2CC2)cc2c1[Si](C(C)C)(C(C)C)O[C@H]2c1ccccc1
Experimental Result: -0.749
